Assay Comment: Solubility in organic solvents (EtOH, MEK)
Type: physicochemical
Details: solvent EtOH
Doc: threshold 40 g/L (exclusive). Items with Solubility (g/l) EtOH beneath it return True; others return False.

Compound: CCCCCN1C(=O)C(=CC=Cc2c(C)c(C#N)c(=O)n(CCCCC)c2[O-])C(C)=C(C#N)C1=O.CCCC[N+](CCCC)(CCCC)CCCC [n-pentyl, n-pentyl, tetrabutyl-ammonium]
Category: False
--
Compound: CC1=C(C#N)C(=O)N(CC(C)C)C(=O)C1=CC=Cc1c(C)c(C#N)c(=O)n(CC(C)C)c1[O-].CCCC[N+](CCCC)(CCCC)CCCC
Category: True
--
Compound: CCCC[N+](CCCC)(CCCC)CCCC.CCn1c([O-])c(C=CC=C2C(=O)N(CCCOC(C)C)C(=O)C(C#N)=C2C)c(C)c(C#N)c1=O [reference compound]
Category: False
--
Compound: CCCCC[N+](CCCCC)(CCCCC)CCCCC.CCn1c([O-])c(C=CC=C2C(=O)N(CCCOC(C)C)C(=O)C(C#N)=C2C)c(C)c(C#N)c1=O [reference compound]
Category: False
--
Compound: CCCCN1C(=O)C(=CC=Cc2c(C)c(C#N)c(=O)n(CCCC)c2[O-])C(C)=C(C#N)C1=O.CCCC[N+](CCCC)(CCCC)CCCC [n-butyl, n-butyl, tetrabutyl-ammonium]
Category: True
--
Compound: CCCC[N+](CCCC)(CCCC)CCCC.CCCN1C(=O)C(=CC=Cc2c(C)c(C#N)c(=O)n(CCC)c2[O-])C(C)=C(C#N)C1=O [n-propyl, n-propyl, tetrabutyl-ammonium]
Category: True
--
Compound: CCCC[N+](CCCC)(CCCC)CCCC.CCCCn1c([O-])c(C=CC=C2C(=O)N(CCCOC(C)C)C(=O)C(C#N)=C2C)c(C)c(C#N)c1=O [reference compound]
Category: False

----------
Assay Comment: Solubility in organic solvents (EtOH, MEK)
Format: physicochemical
Details: solvent MEK (methylethyl ketone)
Doc: threshold 70 g/L (exclusive). Items with Solubility (g/l) MEK beneath it return 1; others return 0.

Compound: CCCC[N+](CCCC)(CCCC)CCCC.CCn1c([O-])c(C=CC=C2C(=O)N(CCCOC(C)C)C(=O)C(C#N)=C2C)c(C)c(C#N)c1=O [reference compound]
Category: 0
//
Compound: CCCC[N+](CCCC)(CCCC)CCCC.CCCCn1c([O-])c(C=CC=C2C(=O)N(CCCOC(C)C)C(=O)C(C#N)=C2C)c(C)c(C#N)c1=O [reference compound]
Category: 0
//
Compound: CCCC[N+](CCCC)(CCCC)CCCC.CCN1C(=O)C(=CC=Cc2c(C)c(C#N)c(=O)n(CC)c2[O-])C(C)=C(C#N)C1=O [ethyl, ethyl, tetrabutyl-ammonium]
Category: 1
//
Compound: CCCCCN1C(=O)C(=CC=Cc2c(C)c(C#N)c(=O)n(CCCCC)c2[O-])C(C)=C(C#N)C1=O.CCCC[N+](CCCC)(CCCC)CCCC [n-pentyl, n-pentyl, tetrabutyl-ammonium]
Category: 0
//
Compound: CCCCC[N+](CCCCC)(CCCCC)CCCCC.CCn1c([O-])c(C=CC=C2C(=O)N(CCCOC(C)C)C(=O)C(C#N)=C2C)c(C)c(C#N)c1=O [reference compound]
Category: 1
//
Compound: CCCCN1C(=O)C(=CC=Cc2c(C)c(C#N)c(=O)n(CCCC)c2[O-])C(C)=C(C#N)C1=O.CCCC[N+](CCCC)(CCCC)CCCC [n-butyl, n-butyl, tetrabutyl-ammonium]
Category: 0
//
Compound: CC1=C(C#N)C(=O)N(CCCOC(C)C)C(=O)C1=CC=Cc1c(C)c(C#N)c(=O)n(C)c1[O-].CCCC[N+](CCCC)(CCCC)CCCC [reference compound]
Category: 1
//
Compound: CCCC[N+](CCCC)(CCCC)CCCC.CCCCn1c([O-])c(C=CC=C2C(=O)N(CC)C(=O)C(C#N)=C2C)c(C)c(C#N)c1=O [ethyl, n-butyl, tetrabutyl-ammonium]
Category: 1
//
Compound: CC1=C(C#N)C(=O)N(CC(C)C)C(=O)C1=CC=Cc1c(C)c(C#N)c(=O)n(CC(C)C)c1[O-].CCCC[N+](CCCC)(CCCC)CCCC
Category: 1
